FYI, the data here is from paper PMC5599994.

# assay.system: CYP2C9 (Homo sapiens, UniProt P11712)
# Sequence (P11712 whole entry): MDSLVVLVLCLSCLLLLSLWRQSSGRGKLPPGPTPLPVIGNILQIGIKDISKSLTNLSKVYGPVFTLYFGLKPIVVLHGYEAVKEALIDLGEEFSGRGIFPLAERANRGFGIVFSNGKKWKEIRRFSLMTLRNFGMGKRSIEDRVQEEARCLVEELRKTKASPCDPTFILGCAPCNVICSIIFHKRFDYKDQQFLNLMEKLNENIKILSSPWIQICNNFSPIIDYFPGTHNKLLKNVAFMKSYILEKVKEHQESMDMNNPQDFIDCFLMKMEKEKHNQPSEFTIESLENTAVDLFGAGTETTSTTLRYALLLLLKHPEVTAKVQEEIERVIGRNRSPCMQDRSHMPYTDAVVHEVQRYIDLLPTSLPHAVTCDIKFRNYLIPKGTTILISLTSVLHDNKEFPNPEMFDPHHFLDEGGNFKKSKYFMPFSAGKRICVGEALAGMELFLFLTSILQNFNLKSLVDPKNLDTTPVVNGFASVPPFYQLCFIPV
measurement.type: pIC50
In textbook form, pIC50 equals minus log to base ten of the concentration in mol/L.

Given CN1Cc2c(Cl)cc(Cl)cc2[C@H](c2cccc(S(=O)(=O)NCCOCCOCCNC(=O)NCCCCNC(=O)NCCOCCOCCNS(=O)(=O)c3cccc([C@@H]4CN(C)Cc5c(Cl)cc(Cl)cc54)c3)c2)C1 , state its recorded pIC50.
4.85

###

# assay.system: CYP2D6 (Homo sapiens, UniProt P10635)
# Sequence (P10635 whole entry): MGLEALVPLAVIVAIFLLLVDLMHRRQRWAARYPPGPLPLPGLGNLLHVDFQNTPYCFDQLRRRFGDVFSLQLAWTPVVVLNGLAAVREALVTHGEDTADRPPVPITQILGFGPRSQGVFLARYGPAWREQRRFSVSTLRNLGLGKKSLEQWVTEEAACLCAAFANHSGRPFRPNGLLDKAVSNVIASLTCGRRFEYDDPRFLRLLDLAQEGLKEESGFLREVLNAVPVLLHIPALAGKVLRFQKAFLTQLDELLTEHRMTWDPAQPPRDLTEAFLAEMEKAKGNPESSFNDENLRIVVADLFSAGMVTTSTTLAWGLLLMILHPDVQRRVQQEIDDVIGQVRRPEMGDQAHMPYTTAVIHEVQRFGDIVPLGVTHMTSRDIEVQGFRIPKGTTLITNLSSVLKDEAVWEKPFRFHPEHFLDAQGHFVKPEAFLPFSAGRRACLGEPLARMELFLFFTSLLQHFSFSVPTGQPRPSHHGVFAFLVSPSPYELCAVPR
measurement.type: pIC50
To interpret pIC50, take it as minus log10 of a concentration measured in moles per litre.

CYP2D6 (Homo sapiens, UniProt P10635) / pIC50 / CN1Cc2c(Cl)cc(Cl)cc2[C@H](c2cccc(S(=O)(=O)NCCOCCOCCNC(=O)NCCCCNC(=O)NCCOCCOCCNS(=O)(=O)c3cccc([C@@H]4CN(C)Cc5c(Cl)cc(Cl)cc54)c3)c2)C1 : value?
5.49

###

# Test system: CYP3A4/5
# Assay type: in vitro ADME
# measurement.context: human, human liver microsomes, probe midazolam 3 μM (1-OH-midazolam formation)
measurement.type: IC50 at 5 min (nM)
Please state the figure in nM; there is no need to write the unit.

Name the reported IC50 at 5 min value associated with the molecule CN1Cc2c(Cl)cc(Cl)cc2[C@H](c2cccc(S(=O)(=O)NCCOCCOCCNC(=O)NCCCCNC(=O)NCCOCCOCCNS(=O)(=O)c3cccc([C@@H]4CN(C)Cc5c(Cl)cc(Cl)cc54)c3)c2)C1 [Tenapanor]
402

###

Sequence of the target: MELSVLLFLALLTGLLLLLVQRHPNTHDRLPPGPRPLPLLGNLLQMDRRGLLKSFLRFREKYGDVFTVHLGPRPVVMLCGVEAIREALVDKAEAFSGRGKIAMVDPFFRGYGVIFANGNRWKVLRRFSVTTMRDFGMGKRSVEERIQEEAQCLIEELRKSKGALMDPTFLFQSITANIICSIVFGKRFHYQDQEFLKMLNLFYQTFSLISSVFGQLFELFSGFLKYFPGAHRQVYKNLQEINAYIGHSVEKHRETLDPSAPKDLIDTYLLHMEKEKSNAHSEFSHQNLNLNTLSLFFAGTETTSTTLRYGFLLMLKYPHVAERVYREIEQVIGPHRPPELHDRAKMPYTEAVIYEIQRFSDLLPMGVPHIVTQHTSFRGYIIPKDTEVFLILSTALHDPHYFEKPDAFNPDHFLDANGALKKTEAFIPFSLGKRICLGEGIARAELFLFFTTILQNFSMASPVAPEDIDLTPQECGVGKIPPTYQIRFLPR
measurement.type: IC50 (µM)
Quick note: give the figure in µM, leave out the unit.

Query: IC50; subject: CN1Cc2c(Cl)cc(Cl)cc2[C@H](c2cccc(S(=O)(=O)NCCOCCOCCNC(=O)NCCCCNC(=O)NCCOCCOCCNS(=O)(=O)c3cccc([C@@H]4CN(C)Cc5c(Cl)cc(Cl)cc54)c3)c2)C1 [Tenapanor]
15.4

###

# assay.system: CYP2C19 (Homo sapiens, UniProt P33261)
# Sequence (P33261 whole entry): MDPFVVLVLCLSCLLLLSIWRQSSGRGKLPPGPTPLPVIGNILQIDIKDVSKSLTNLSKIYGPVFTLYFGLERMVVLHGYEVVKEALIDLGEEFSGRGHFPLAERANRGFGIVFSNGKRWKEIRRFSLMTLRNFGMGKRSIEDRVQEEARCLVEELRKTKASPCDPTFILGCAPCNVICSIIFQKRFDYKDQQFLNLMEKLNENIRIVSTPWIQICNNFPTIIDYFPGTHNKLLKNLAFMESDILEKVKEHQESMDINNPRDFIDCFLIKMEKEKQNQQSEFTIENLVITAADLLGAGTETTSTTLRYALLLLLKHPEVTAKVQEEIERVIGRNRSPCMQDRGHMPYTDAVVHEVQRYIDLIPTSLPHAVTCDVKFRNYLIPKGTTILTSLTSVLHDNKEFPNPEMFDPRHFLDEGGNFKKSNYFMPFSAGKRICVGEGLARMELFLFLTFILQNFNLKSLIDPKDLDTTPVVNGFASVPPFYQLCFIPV
measurement.type: IC50

Which measured IC50 belongs to CN1Cc2c(Cl)cc(Cl)cc2[C@H](c2cccc(S(=O)(=O)NCCOCCOCCNC(=O)NCCCCNC(=O)NCCOCCOCCNS(=O)(=O)c3cccc([C@@H]4CN(C)Cc5c(Cl)cc(Cl)cc54)c3)c2)C1 , tested on CYP2C19 (Homo sapiens, UniProt P33261)?
> 30 µM

###

# assay.system: CYP2C8 (Homo sapiens, UniProt P10632)
# Sequence (P10632 whole entry): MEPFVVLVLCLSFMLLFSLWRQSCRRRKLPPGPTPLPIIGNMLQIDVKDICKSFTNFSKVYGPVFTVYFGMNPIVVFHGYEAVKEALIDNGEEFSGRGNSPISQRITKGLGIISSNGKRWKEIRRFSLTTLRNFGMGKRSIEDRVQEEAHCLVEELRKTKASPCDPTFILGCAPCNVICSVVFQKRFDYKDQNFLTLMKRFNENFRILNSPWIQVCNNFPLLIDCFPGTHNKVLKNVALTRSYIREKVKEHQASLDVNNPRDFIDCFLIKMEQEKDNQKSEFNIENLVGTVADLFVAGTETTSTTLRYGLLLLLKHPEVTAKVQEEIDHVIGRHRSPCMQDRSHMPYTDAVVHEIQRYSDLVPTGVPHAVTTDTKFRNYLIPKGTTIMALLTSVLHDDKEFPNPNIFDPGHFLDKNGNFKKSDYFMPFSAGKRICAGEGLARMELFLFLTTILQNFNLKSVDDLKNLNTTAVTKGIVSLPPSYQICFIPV
measurement.type: IC50
Field: value (include unit after the number)

Query: IC50; subject: CN1Cc2c(Cl)cc(Cl)cc2[C@H](c2cccc(S(=O)(=O)NCCOCCOCCNC(=O)NCCCCNC(=O)NCCOCCOCCNS(=O)(=O)c3cccc([C@@H]4CN(C)Cc5c(Cl)cc(Cl)cc54)c3)c2)C1 [Tenapanor]
10.4 µM

###

# assay.system: CYP1A2 (Homo sapiens, UniProt P05177)
# Sequence (P05177 1-516): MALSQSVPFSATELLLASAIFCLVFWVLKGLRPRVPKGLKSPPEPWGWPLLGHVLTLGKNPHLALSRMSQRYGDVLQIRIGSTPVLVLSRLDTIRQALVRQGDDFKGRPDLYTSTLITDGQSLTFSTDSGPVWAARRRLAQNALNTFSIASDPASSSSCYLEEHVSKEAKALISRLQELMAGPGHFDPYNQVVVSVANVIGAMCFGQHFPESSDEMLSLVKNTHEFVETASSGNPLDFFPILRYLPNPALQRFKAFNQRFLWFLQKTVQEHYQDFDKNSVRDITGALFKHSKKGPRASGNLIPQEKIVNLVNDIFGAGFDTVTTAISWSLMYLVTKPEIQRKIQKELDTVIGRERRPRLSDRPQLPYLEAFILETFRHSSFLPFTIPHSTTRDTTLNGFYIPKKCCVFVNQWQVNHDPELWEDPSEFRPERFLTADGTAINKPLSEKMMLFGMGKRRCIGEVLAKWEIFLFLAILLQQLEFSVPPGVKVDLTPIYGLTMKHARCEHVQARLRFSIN
# protocol.notes: Reversible CYP inhibition in human liver microsomes, phenacetin marker
# Format: in vitro ADME
# measurement.context: probe phenacetin 30 μM (paracetamol formation)
measurement.type: IC50 at 5 min

Data request, read-out IC50 at 5 min, for CN1Cc2c(Cl)cc(Cl)cc2[C@H](c2cccc(S(=O)(=O)NCCOCCOCCNC(=O)NCCCCNC(=O)NCCOCCOCCNS(=O)(=O)c3cccc([C@@H]4CN(C)Cc5c(Cl)cc(Cl)cc54)c3)c2)C1
> 30 µM
